B1: ADD1 (parent)
chain: LRHSFQKQQREKTRWLNSGRGDEA

Variants of: B1
Experiment: protein stability index of a GFP-peptide fusion (GPS, HEK-293T) (PSI 1-6); higher = more stable;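 further: lentivirally expressed fusions sorted by FACS into six bins by GFP to DsRed ratio, PSI derived from sequencing read proportions per bin multiplied by bin number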
Conditions: c terminus: a fixed tail appended
observed property: protein stability index
Lab note: record the figure alone, no unit after it.

Give the reported value of protein stability index for this record: LRHSFQKQQREKTRWLNSGRHDEA [G21H]
3.2

Give the reported value of protein stability index for this record: LRHSFQKQQREKTRWLDSGRGDEA [N17D]
3.94

Give the reported value of protein stability index for this record: LRHSFQKQQREKTRWLNSPRGDEA [G19P]
3.65

Give the reported value of protein stability index for this record: LRHSHQKQQREKTRWLNSGRGDEA [F5H]
4.24

Give the reported value of protein stability index for this record: LRHSMQKQQREKTRWLNSGRGDEA [F5M]
3.8

Give the reported value of protein stability index for this record: LRHSFQKQQREKTRWSNSGRGDEA [L16S]
4.22

Give the reported value of protein stability index for this record: LRHSFQKQQREKTRWLNSGRGGEA [D22G]
3.62

Give the reported value of protein stability index for this record: LRHSFLKQQREKTRWLNSGRGDEA [Q6L]
3.54

Give the reported value of protein stability index for this record: LRHSFQKQQREKMRWLNSGRGDEA [T13M]
3.25

Give the reported value of protein stability index for this record: LRHSFQKQQREKTTWLNSGRGDEA [R14T]
3.15

Give the reported value of protein stability index for this record: LRHSFQKQQREKTRWLKSGRGDEA [N17K]
3.65

Give the reported value of protein stability index for this record: LRHSFQKQQRESTRWLNSGRGDEA [K12S]
3.54

Give the reported value of protein stability index for this record: LRHSFQWQQREKTRWLNSGRGDEA [K7W]
3.08

Give the reported value of protein stability index for this record: LRHSFQKQQREITRWLNSGRGDEA [K12I]
3.46

Give the reported value of protein stability index for this record: LRHSFRKQQREKTRWLNSGRGDEA [Q6R]
3.7

Give the reported value of protein stability index for this record: LRHSFQKQQREKTRWLNSGRGDMA [E23M]
3.25

Give the reported value of protein stability index for this record: LRHSFQKQQREKTRWLNSGRKDEA [G21K]
3.84

Give the reported value of protein stability index for this record: LRHSFQKQQRAKTRWLNSGRGDEA [E11A]
3.41

Give the reported value of protein stability index for this record: LRHSFQKQQREKTRWLNSGRGREA [D22R]
3.73

Give the reported value of protein stability index for this record: LRHSFQKQQREKTRWLNSIRGDEA [G19I]
2.73

Give the reported value of protein stability index for this record: LRHSFQKQQREKTRWLNSGAGDEA [R20A]
3.84

Give the reported value of protein stability index for this record: LRHSFQKQQREKTRCLNSGRGDEA [W15C]
3.73

Give the reported value of protein stability index for this record: HRHSFQKQQREKTRWLNSGRGDEA [L1H]
3.92

Give the reported value of protein stability index for this record: LRHSFQKQQREKTRWLNSGNGDEA [R20N]
3.62

Give the reported value of protein stability index for this record: LPHSFQKQQREKTRWLNSGRGDEA [R2P]
4.33

Give the reported value of protein stability index for this record: LRHSFQKQQREKTRWLVSGRGDEA [N17V]
4.03

Give the reported value of protein stability index for this record: LRHSFQKQQREKTRWLNSGRGDKA [E23K]
2.73

Give the reported value of protein stability index for this record: LRHSFQKQQREKTRWLNSLRGDEA [G19L]
3.35

Give the reported value of protein stability index for this record: LRHSFQKQQREKTRWLNSGRPDEA [G21P]
3.71

Give the reported value of protein stability index for this record: LRHSFQQQQREKTRWLNSGRGDEA [K7Q]
4.27

Give the reported value of protein stability index for this record: LRHSFQKQQREKTRWLNSGRGDEC [A24C]
3.51

Give the reported value of protein stability index for this record: LRHSFQKQQREKTRWLNSGRGDWA [E23W]
2.77

Give the reported value of protein stability index for this record: LRHSFQKQQREKTRWLASGRGDEA [N17A]
3.81

Give the reported value of protein stability index for this record: LRHSFQKQQREKTRWLNSVRGDEA [G19V]
2.82

Give the reported value of protein stability index for this record: LRHSFNKQQREKTRWLNSGRGDEA [Q6N]
3.87

Give the reported value of protein stability index for this record: LRHSFQDQQREKTRWLNSGRGDEA [K7D]
3.87

Give the reported value of protein stability index for this record: LRHSFQKQQREKNRWLNSGRGDEA [T13N]
4.27

Give the reported value of protein stability index for this record: LRHSFQKQQCEKTRWLNSGRGDEA [R10C]
3.58

Give the reported value of protein stability index for this record: LRHSFQKQQREHTRWLNSGRGDEA [K12H]
3.58

Give the reported value of protein stability index for this record: LRHHFQKQQREKTRWLNSGRGDEA [S4H]
2.74

Give the reported value of protein stability index for this record: LRHSFQKQQRLKTRWLNSGRGDEA [E11L]
2.28

Give the reported value of protein stability index for this record: LRHSFQKQQREKPRWLNSGRGDEA [T13P]
3.52
